system: IGROV-1; assay: NCI tumour cell line growth inhibition, 48 h
Activity calls are given as the source filed them. No stated cut-off is given here; in the data, active = GI50 up to about 1.1 µM and inactive = higher.
Classes used: active, inactive

{"columns": ["Compound", "Assigned Class"],
 "data": [
  ["Cn1ncnc1CCc1ccccc1", "inactive"],
  ["CCOc1cc2c(cc1O)C(=O)C[C@@H]1[C@@H]2CC[C@]2(C)[C@@H](O)CC[C@@H]12", "active"],
  ["N#Cc1c(-c2ccccc2)[nH]c2ccccc2c1=O", "inactive"],
  ["Cc1ccc(Nc2nnc3n2S(=O)(=O)c2cc(C)c(Cl)cc2S3)cc1", "inactive"],
  ["COc1ccc(N[S+]([O-])c2c(C)cc(C)cc2C)cc1 (stereo not given)", "inactive"],
  ["CCOC(=O)[C@H]1Nc2ccc(Cl)cc2[C@H]2c3ccccc3O[C@H]21", "inactive"],
  ["N#C[BH2-][n+]1ccc(C(=O)NNCC(F)(F)F)cc1", "inactive"],
  ["ClC(Cl)(Cl)C1=N[C@H]2[C@H](Br)[C@@H]3O[C@@H](c4ccccc4)[C@H](c4ccccc4)O[C@@H]3[C@H]2O1", "inactive"],
  ["O=C(c1ccccc1)C(C(=O)c1ccccc1)c1nc2ccccc2sc1=O", "inactive"],
  ["CCCOc1ccc(/C=C/C2=[N+](CCO)CCO2)cc1", "inactive"]
]}
